- Tested on: Kochia (Kochia scoparia)
- test.method.notes: Test A preemergence
- Type: in vivo
- condition.context: Bassia scoparia, pre-emergence, 240 h, 500 g ai/ha, preemergence; 0 to 100 scale (0 no effect, 100 complete control); read-out: Plant response rating, Kochia

compound.structure: O=C1NC[C@H](c2nccc(C(F)(F)F)n2)[C@H]1C(=O)Nc1cccc(F)c1F
pest or weed control at 500 g/ha [%]: 0
--
compound.structure: Cc1c(F)cccc1NC(=O)[C@H]1C(=O)N(C)C[C@@H]1c1ccc(C(F)(F)F)cc1
pest or weed control at 500 g/ha [%]: 90
--
compound.structure: Cc1ccc([C@H]2CN(C)C(=O)[C@@H]2C(=O)Nc2ccccc2F)cc1Cl
pest or weed control at 500 g/ha [%]: 70

----------
- Tested on: giant foxtail (Setaria faberi)
- test.method.notes: Test G Pre-Emergence Protocol
- Type: in vivo
- condition.context: Setaria faberi, pre-emergence, 312 h, 250 g ai/ha, evaluated after 13 days, read-out: Foxtail, Giant damage rating (100=total damage to plant; 0=no damage to plant)

molecule: CN1C[C@H](c2ccc(C(F)(F)F)cc2)[C@@H](C(=O)Nc2ncccc2[N+](=O)[O-])C1=O (racemic)
system.tested: giant foxtail (Setaria faberi)
pest or weed control at 250 g/ha: 0%
//
molecule: CN1C[C@H](c2ccc(C(F)(F)F)cc2)[C@@H](C(=O)Nc2ccc(F)c(Cl)c2)C1=O (racemic)
system.tested: giant foxtail (Setaria faberi)
pest or weed control at 250 g/ha: 50%
//
molecule: CN1C[C@H](c2ccc(C(F)(F)F)cc2)[C@@H](C(=O)Nc2cccnc2S(C)(=O)=O)C1=O (racemic)
system.tested: giant foxtail (Setaria faberi)
pest or weed control at 250 g/ha: 0%
//
molecule: Cc1cccnc1NC(=O)C1C(=O)N(C)CC1c1ccc(C(F)(F)F)cc1 (stereo not shown)
system.tested: giant foxtail (Setaria faberi)
pest or weed control at 250 g/ha: 0%
//
molecule: CN1C[C@@H](c2ccc(C(F)(F)F)cc2)[C@H](C(=O)Nc2ccnnc2)C1=O (racemic)
system.tested: giant foxtail (Setaria faberi)
pest or weed control at 250 g/ha: 0%
//
molecule: CN1C[C@@H](c2ccnc(C(F)(F)F)c2)[C@H](C(=O)Nc2cccc(F)c2F)C1=O (racemic)
system.tested: giant foxtail (Setaria faberi)
pest or weed control at 250 g/ha: 90%
//
molecule: CN1C[C@H](c2ccc(C(F)(F)F)cc2)[C@@H](C(=O)Nc2cccnc2[S+](C)[O-])C1=O (mixture of isomers)
system.tested: giant foxtail (Setaria faberi)
pest or weed control at 250 g/ha: 0%
//
molecule: COc1ccc([C@H]2CN(C)C(=O)[C@@H]2C(=O)Nc2ccccc2F)c(C)c1 (racemic)
system.tested: giant foxtail (Setaria faberi)
pest or weed control at 250 g/ha: 90%
//
molecule: CN1C[C@H](c2ccc(C(F)(F)F)cc2)[C@@H](C(=O)Nc2ccc(Cl)cc2[N+](=O)[O-])C1=O (racemic)
system.tested: giant foxtail (Setaria faberi)
pest or weed control at 250 g/ha: 0%
//
molecule: COc1cc([C@@H]2CN(C)C(=O)[C@H]2C(=O)Nc2cccc(F)c2F)ccn1 (racemic)
system.tested: giant foxtail (Setaria faberi)
pest or weed control at 250 g/ha: 90%

----------
Catalogue of pest or weed control at 125 g/ha readings, one per entry.
- Test system: Kochia (Kochia scoparia)
- test.method.notes: Test A preemergence
- Format: in vivo
- condition.context: Bassia scoparia, pre-emergence, 240 h, 125 g ai/ha, preemergence; 0 to 100 scale where 0 is no effect and 100 is complete control; approx. 10 d; read-out: Kochia plant response rating
readout.name: pest or weed control at 125 g/ha (%)

molecule: Cc1c(F)cccc1NC(=O)[C@H]1C(=O)N(C)C[C@@H]1c1cc(C(F)F)cs1
reported: 20
--
molecule: O=C1NC[C@H](c2ccc(F)c(OC(F)(F)C(F)F)c2)[C@H]1C(=O)Nc1ccc(F)cc1F (racemic)
reported: 70
--
molecule: CN1C[C@H](c2csc(C(F)F)c2)[C@@H](C(=O)Nc2cccc(F)c2F)C1=O
reported: 60
--
molecule: CN1CC(c2cccc(O)c2)C(C(=O)Nc2cccc(F)c2F)C1=O (stereo not drawn)
reported: 0
--
molecule: C=C(C)c1ccc([C@H]2CN(C)C(=O)[C@@H]2C(=O)Nc2cccc(F)c2C)cc1
reported: 0
--
molecule: CCc1ccc([C@H]2CNC(=O)[C@@H]2C(=O)Nc2cccc(F)c2C)cc1
reported: 30
--
molecule: COc1cccc([C@H]2CN(C)C(=O)[C@@H]2C(=O)Nc2ccc(F)c(F)c2F)c1
reported: 20
--
molecule: O=C1NC[C@H](c2cscn2)[C@H]1C(=O)Nc1cccc(F)c1F
reported: 0
--
molecule: Cc1ccncc1NC(=O)[C@H]1C(=O)N(C)C[C@@H]1c1cccc(C(F)(F)F)c1
reported: 0
--
molecule: Cc1cc([C@H]2CN(C)C(=O)[C@@H]2C(=O)Nc2ccccc2F)ccc1Br
reported: 20
--
molecule: CN1C[C@H](c2csc(C(F)F)c2)[C@@H](C(=O)Nc2ccccc2F)C1=O
reported: 60
--
molecule: O=C1NC[C@H](c2ccc(F)c(OC(F)(F)C(F)F)c2)[C@H]1C(=O)Nc1ccccc1F
reported: 60

----------
- System: ryegrass, Italian (Italian ryegrass, Lolium multiflorum)
- test.method.notes: Test A postemergence
- Format: in vivo
- condition.context: Lolium multiflorum, post-emergence, 240 h, Postemergence, 500 g ai/ha; visual injury, 0 to 100 scale (0 no effect, 100 complete control), approx. 10 d; read-out: Plant response rating, Ryegrass, Italian
- Description: […]
Catalogue of pest or weed control at 500 g/ha readings, one per entry.
readout.name: pest or weed control at 500 g/ha (%)

compound: CN1C[C@H](c2ccc(F)c(C#N)c2)[C@@H](C(=O)Nc2ccccc2F)C1=O [Compound 1254]
readout.name: pest or weed control at 500 g/ha
reported: 70
//
compound: Cc1ccc([C@H]2CN(C)C(=O)[C@@H]2C(=O)Nc2ccccc2F)cc1Cl [Compound 1384]
readout.name: pest or weed control at 500 g/ha
reported: 30
//
compound: CSc1ccccc1NC(=O)[C@H]1C(=O)N(C)C[C@@H]1c1ccc2c(c1)OC(F)(F)O2 [Compound 1251]
readout.name: pest or weed control at 500 g/ha
reported: 40
//
compound: COc1cc(OC)cc([C@H]2CN(C)C(=O)[C@@H]2C(=O)Nc2cccc(F)c2F)c1 [Compound 1370]
readout.name: pest or weed control at 500 g/ha
reported: 70
//
compound: O=C1NC[C@H](c2cnc(C(F)(F)F)nc2)[C@H]1C(=O)Nc1cccc(F)c1F [Compound 1382]
readout.name: pest or weed control at 500 g/ha
reported: 0
//
compound: CSc1ccccc1NC(=O)[C@H]1C(=O)NC[C@@H]1c1ccc2c(c1)OCO2 [Compound 1257]
readout.name: pest or weed control at 500 g/ha
reported: 0

----------
- Tested on: giant foxtail (Setaria faberii)
- test.method.notes: Test A postemergence
- Type: in vivo
- condition.context: Setaria faberi, post-emergence, 240 h, Postemergence, 31 g ai/ha; 0 is no effect, 100 is complete control; read-out: Foxtail, Giant plant response rating (0 to 100 scale)

compound: Cc1ccc([C@H]2CN(C)C(=O)[C@@H]2C(=O)Nc2cccnc2F)cc1 [Compound 1398]
pest or weed control at 31 g/ha, %: 90
//
compound: CC(C)Oc1ccc([C@H]2CN(C)C(=O)[C@@H]2C(=O)Nc2ccccc2F)cc1F [Compound 1333]
pest or weed control at 31 g/ha, %: 0
//
compound: CN1C[C@H](c2cc(Cl)cc(Cl)c2)[C@@H](C(=O)Nc2cccc(F)c2F)C1=O [Compound 1270]
pest or weed control at 31 g/ha, %: 60
//
compound: CN1C[C@H](c2ccc3c(c2)C(F)(F)C(F)(F)O3)[C@@H](C(=O)Nc2cccc(F)c2F)C1=O [Compound 1271]
pest or weed control at 31 g/ha, %: 20

----------
- Test system: rice (Oryra sativa)
- test.method.notes: Test B flooded paddy test
- Assay type: in vivo
- condition.context: Flood, 250 g ai/ha; 0 to 100 scale where 0 is no effect and 100 is complete control; 13 to 15 d
- Description: Plant species in the flooded paddy test selected from rice (Oryra sativa), sedge, umbrella (small-flower umbrella sedge, Cyperus difformis), ducksalad (Heteranthera limosa), and barnyardgrass (Echinochloa crus-galli) were grown to the 2-leaf stage for testing. […] Treated plants and controls were maintained in a greenhouse for 13 to 15 d, after which time all species were compared to controls and visually evaluated. […]
Catalogue of Plant response rating, Rice readings, one per entry.
readout.name: Plant response rating, Rice

compound: O=C1NCC(c2cccc(OC(F)(F)C(F)F)c2)C1C(=O)Nc1ccccc1C(F)F (stereo not shown) [Compound 391]
reported: 0
--
compound: O=C1NCC(c2cc(C(F)(F)F)ccc2F)C1C(=O)Nc1cccc(F)c1F (stereo not shown) [Compound 594]
reported: 35
--
compound: CN1CC(c2ccc(C(F)(F)F)cc2)C(C(=O)Nc2ccccc2S(C)(=O)=O)C1=O (stereo not shown) [Compound 624]
reported: 20
--
compound: CC(C)Oc1cccc(C2CNC(=O)C2C(=O)Nc2ccc(F)cc2F)c1 (racemic) [Compound 377]
reported: 25
--
compound: O=C1NCC(c2ccc(Br)cc2)C1C(=O)Nc1ccccc1Cl (stereo not shown) [Compound 453]
reported: 0
--
compound: O=C1NCC(c2cc(F)c(F)cc2F)C1C(=O)Nc1ccc(F)c(F)c1F (stereo not shown) [Compound 614]
reported: 10
--
compound: O=C1NCC(c2cc(F)cc(Cl)c2)C1C(=O)Nc1ccc(F)cc1F (stereo not shown) [Compound 493]
reported: 25
